Tested on: MS2 coat protein
MEASUREMENT PROTOCOL: apparent KD of MS2 coat protein; designed switch direction (-1 OFF switch, 1 ON switch): 1; higher = weaker reporter binding
PROTOCOL CONDITIONS: input ligand: FMN 200 uM
PROPERTY: apparent KD of MS2 coat protein (nM)
Number in nM, nothing else.

[
  {
    "PRIMARY SEQUENCE": "UUAACAUGAGGAUCACCCAUGUAUACGUAGUUUGCAUUUUGACAGGAUAUUGUUUAUCUAUAUAGCAAGAAGGGUCGUUAGUCU [JR_SSNG3_Sub009] (Eterna round: R96, puzzle: Same State NG 3)",
    "SUBJECT OF TEST": "MS2 coat protein",
    "PROPERTY": "apparent KD of MS2 coat protein",
    "ENDPOINT UNIT": "nM",
    "VALUE REPORTED": 27
  }
]

In the following, a different sequence is considered.
INPUT: Given GUACUCAUGUAAGGAUAUGCAGCCGUUUCGGCUGCAGAAGGUACUAUAAUACAUGAGGAUCACCCAUGUCUCUAUAAUUUAGUG [salish99_SSNG1_r04_901] (Eterna round: R96, puzzle: Same State NG 1) , state its recorded apparent KD of MS2 coat protein.
OUTPUT: 70.6

---

Tested on: MS2 coat protein
MEASUREMENT PROTOCOL: apparent KD of MS2 coat protein, switch OFF state (with FMN for OFF switches, without FMN for ON switches); designed switch direction (-1 OFF switch, 1 ON switch): -1; higher = weaker reporter binding
PROTOCOL CONDITIONS: FMN input: 0 or 200 uM; Eterna round: R93 (includes R88 designs)
Classify by measured apparent KD of MS2 coat protein: 1 if it is equal to or exceeds 0.04 µM, 0 if it is smaller.

Look over these answered cases.
[
  {
    "PRIMARY SEQUENCE": "CAUUCACAUGAGGAUCACCCAUGUAAGGAUAUCGAAAUAAAACUAAUCAAUAAACAAACGAGAAGGUACAAAAA [Exclusion 1 design 9]",
    "QUALITATIVE LABEL": 0
  },
  {
    "PRIMARY SEQUENCE": "AAGAGGUGAGGAUAUCGAAGAAGAAGAAGAAGAAGAAGAAACGAGAAGGCACAUGAGGAUCACCCAUGUAAGAA [Exclusion 4]",
    "QUALITATIVE LABEL": 0
  },
  {
    "PRIMARY SEQUENCE": "GCUGUCCAAGGAUAUACAUGAGGAUCACCCAUGUGAGAGAAAAAAGUGAGAAAGAAAAGUAGAAGGUGGGUAGG [salish99-ex3-103]",
    "QUALITATIVE LABEL": 1
  },
  {
    "PRIMARY SEQUENCE": "AAAAACCUAGGAUAUACAUGAGGAUCACCCAUGUAAAGAAACAAAAAGGGAAACACAAGUAGAAGGAGGAAGAA [JR_Exc003_Sub1203]",
    "QUALITATIVE LABEL": 0
  },
  {
    "PRIMARY SEQUENCE": "GAAUACCUAGGAUAUACAUGAGGAUCACCCAUGUCAGUAGACUGGGAAAAGUCUCUCAGUAGAAGGAGGACCAG [Anaran]",
    "QUALITATIVE LABEL": 1
  }
]

INPUT: Given the entry AAGAAGACAGGAUAUACAUGAAAGAAAGAAAAGAAAAGAAAACAUGAGGAUCACCCAUGUAGAAGGGUCAAGAA [EteRNA is fun!] , answer whether its apparent KD of MS2 coat protein meets or surpasses 0.04 µM.
OUTPUT: 0

---

Property: apparent KD of K4 kissing-loop reporter; scope: individual sequences
Test system: K4 kissing-loop RNA reporter;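 note: bound reporter read as fluorescence of individual clusters on recovered sequencing chips by microscopy, with normalized cluster intensities fitted with a binding model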
MEASUREMENT PROTOCOL: apparent KD of K4 kissing-loop reporter; higher = weaker reporter binding
PROTOCOL CONDITIONS: Eterna round: R107; input ligand: arginine 13.2 mM
Just the number please, in nM, no unit attached.

Worked cases, answers included:
[
  {
    "PRIMARY SEQUENCE": "AUUUUGGUUUAGAGUGAUGUUCCUUGUAUUCGAGGACCGGUACGGCCGCCACUCGGAUAGAAAAGAAAAGAAAUGUUUGAUUUUU [BDazzled - #8 SS Tryptophan A]",
    "ENDPOINT UNIT": "nM",
    "apparent KD of K4 kissing-loop reporter": 219
  },
  {
    "PRIMARY SEQUENCE": "AGUGAAGUUAGUGAUGUGUGAGUUUGGGAAGGAGCGCCGAGGAAGGCAGGUAGGUCGCCCAGUGAUGUUGGUGUAAGGAUGAGAG [whbob_Ex_Arginine_A_2t123]",
    "ENDPOINT UNIT": "nM",
    "apparent KD of K4 kissing-loop reporter": 332
  },
  {
    "PRIMARY SEQUENCE": "UGUGAGCUGUCGACAAAAGUCGACUAAAGCGAGGAUAUGACGAAAGUCAGAAGGCGUCAAUAAUGGAGUGAUGUUCCUGCUCACU [FmnA 9 G29]",
    "ENDPOINT UNIT": "nM",
    "apparent KD of K4 kissing-loop reporter": 436
  },
  {
    "PRIMARY SEQUENCE": "GGCAUCCAUGGACCUAGUGAUGUUAGGUACCGAGGACCGGUACGGCCGCCACUCGGCCAUGGAUGCCGCAAUCGGAAACGAUUGC",
    "ENDPOINT UNIT": "nM",
    "apparent KD of K4 kissing-loop reporter": 243
  },
  {
    "PRIMARY SEQUENCE": "AGACCACAAAGUGGUCAGUGUUCGCUCCGGCGAGGACCGGUACGGCCGCCACUCGCGAGUGAUGUUCGCGAGUGGAGCGAACACA [Omei KL Tryp A Exc A v1]",
    "ENDPOINT UNIT": "nM",
    "apparent KD of K4 kissing-loop reporter": 78
  }
]

Continue with the sequence presented below.
INPUT: Name the reported apparent KD of K4 kissing-loop reporter value associated with the sequence UGGAUAUAGUGAUGUUAUAUAGAGAUAGAUACCAGUUAAGAGAAUAGCCCUUGGCAGCUGAAAGAAGUAUCAUUAGAGAAGAAUG [ExTheophyl.Ab]
OUTPUT: 147

---

Tested on: MS2 coat protein
MEASUREMENT PROTOCOL: apparent KD of MS2 coat protein; designed switch direction (-1 OFF switch, 1 ON switch): -1; higher = weaker reporter binding
PROTOCOL CONDITIONS: Eterna round: R95; input ligand: microRNA oligo, concentration not stated
Known apparent KD of MS2 coat protein of a selection of sequences
Response body: numeric value in nM, unit text excluded.

[
  {
    "PRIMARY SEQUENCE": "ACAAGCUUUUUGUUCGUCUUAUAAUAAUAAAUAAAUAUAACAUGAGGAUCACCCAUGUUGAGAAGACAACCUCAUGU [Sesor Array 24 - Jieux - Sensor v3, turn-off variant 2] (puzzle: Sensor v3, turn-off variant 2)",
    "apparent KD of MS2 coat protein, nM": 108
  }
]

INPUT: Please look up its apparent KD of MS2 coat protein: UUCCUACAUGAGGAUCACCCAUGUCAGGAUAUCUCCUCACUGCGCUUGCGCAGUGAAUAGAGAAGGGACAGGCU [JL ViennaUCT Aner mod 1] (puzzle: Exclusion 1)
OUTPUT: 15.9

INPUT: For AUUAUAACAUAGGAUAUCGAAUUUAUCAUUUAACGAGAAGGAUGAACAUGAGGAUCACCCAUGUGGUAUCAUGG [Mat - Exclusion 6 - JL Mod - D3] (puzzle: Exclusion 6) then?
OUTPUT: 173

INPUT: Follow-up item: AAACAGGGAGGAUAUACAUAGAUCCUCUAACCUAAUAGGUCACAUGAGGAUCACCCAUGUAGAAGGCCCUUAGG [Biinbebi] (puzzle: Exclusion 2)
OUTPUT: 14.3

INPUT: Try this sequence too: AAAGAACAUGAGGAUCACCCAUGUGAGGAUAUGCGAAAACCGCUGACAAACCAGACGGGCAGAAGGCAUAUGGU [Birima] (puzzle: Exclusion 1)
OUTPUT: 56.2

INPUT: Next sequence up: CUUUUGUGAGGAUAUCAGUAGUAAAUAAAUUAAAUUACUACUGAGAAGGCACAUGAGGAUCACCCAUGUUCCUC [salish99_ex3_r3_081] (puzzle: Exclusion 4)
OUTPUT: 39.3

INPUT: Next sequence: GGCCCUAAGGUCAGAUUCACAAGCUUUUUGCUCGUUUUAACAUGAGGAUCACCCAUGUCUAGUGGAUUUGAUCCUUU [Sensor v3, turn-off variant 2 (MOD of Indiso v.6)] (puzzle: Sensor v3, turn-off variant 2)
OUTPUT: 25.4

INPUT: Please answer likewise for GUCGUGUAAGGAUAUGCAUCGAGGUAGCGAAUGUUGCAGGUGUAGAAGGUACAUGAGGAUCACCCAUGUAAUGU [Exclusion 4 - An extended Mod of Jieux] (puzzle: Exclusion 4)
OUTPUT: 20.2

INPUT: And what about the sequence GUAGAGUAAGGAUAUCAUGAAUAGGAUAGAAUGGUUAGAAAUGAGAAGGUACAUGAGGAUCACCCAUGUAAUGU [Excluse me!!!! 12 - Jieux - Exclusion 4] (puzzle: Exclusion 4) ?
OUTPUT: 21.6

INPUT: Repeat with AGUACGAUGCGUGCUGACAUGCGUCGUGCAGCAGGUGAUACAUGAGGAUCACCCAUGUCCUCAUUUGCUCGUCUUGU [Mat - Sensor v3 - Turn-off var 2 - D18] (puzzle: Sensor v3, turn-off variant 2)
OUTPUT: 257
